Reference source: patent US20250170117A1

Consider the following compounds and their measured pKi readings.
Target: NanoLuc-hACKR3 (Homo sapiens)
Construct: membrane preparation)
Sequence (P25106 whole entry): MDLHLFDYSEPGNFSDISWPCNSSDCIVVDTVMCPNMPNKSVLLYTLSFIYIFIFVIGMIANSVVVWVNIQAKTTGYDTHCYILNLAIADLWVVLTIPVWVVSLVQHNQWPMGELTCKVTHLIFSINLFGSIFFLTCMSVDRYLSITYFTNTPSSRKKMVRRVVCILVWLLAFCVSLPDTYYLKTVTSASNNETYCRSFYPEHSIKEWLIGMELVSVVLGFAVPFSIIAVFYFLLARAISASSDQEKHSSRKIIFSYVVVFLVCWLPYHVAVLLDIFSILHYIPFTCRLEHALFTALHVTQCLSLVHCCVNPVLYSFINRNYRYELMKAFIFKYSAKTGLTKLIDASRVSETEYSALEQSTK
Assay: NanoBRET binding study (displacement of fluorescently labelled CXCL12)
Details: displacement of 0.3 nM CXCL12-AF647; membranes of HEK293T cells expressing NanoLuc-ACKR3; 1 hour incubation; read-out: Affinity
pKi: −log10 of the molar value.

{"molecule": "O=C(O)c1ccc(CN2CCC(CNC(=O)c3cc(-c4ccc(F)cc4F)on3)CC2)cc1", "pKi": "5.00 to 6.00"}
{"molecule": "COc1ccc(CN2CCC(CNC(=O)c3cc(-c4ccc(F)cc4F)on3)CC2)cc1", "pKi": "≥ 7.00"}
{"molecule": "O=C(NCC1CCN(Cc2ccc(OC(F)(F)F)cc2)CC1)c1cc(-c2ccc(F)cc2F)on1", "pKi": "< 5.00"}
{"molecule": "O=C(NCC1CCN(Cc2ccc(N3CCCC3)cc2)CC1)c1cc(-c2ccc(F)cc2F)on1", "pKi": "≥ 7.00"}
{"molecule": "O=C(NCC1CCN(Cc2ccc(C(F)(F)F)cc2)CC1)c1cc(-c2ccc(F)cc2F)on1", "pKi": "< 5.00"}
{"molecule": "O=C(NCC1CCN(C2CCC2)CC1)c1cc(-c2ccc(F)cc2F)on1", "pKi": "6.00 to 7.00"}

====

Consider the following compounds and their measured Ki readings.
Biological target: NanoLuc-hACKR3 (Homo sapiens)
Construct: membrane preparation)
Experiment: NanoBRET binding study (displacement of fluorescently labelled CXCL12)
Conditions: displacement of 0.3 nM CXCL12-AF647; membranes of HEK293T cells expressing NanoLuc-ACKR3; 1 hour incubation; read-out: Affinity

{"molecule": "CN(C)c1ccc(CN2CCC(CNC(=O)c3cc(-c4ccc(F)cc4F)on3)CC2)cc1", "Ki": "≤ 100 nM"}
{"molecule": "CS(=O)(=O)c1ccc(CN2CCC(CNC(=O)c3cc(-c4ccc(F)cc4F)on3)CC2)cc1", "Ki": "1000 to 10000 nM"}
{"molecule": "O=C(NCC1CCN(C/C=C/c2ccccc2)CC1)c1nnc(-c2ccc(F)cc2F)s1", "Ki": "≤ 100 nM"}
{"molecule": "O=C(NCC1CCN(CC2CCCCC2)CC1)c1cc(-c2ccc(F)cc2F)on1", "Ki": "1000 to 10000 nM"}
{"molecule": "CN(C)C(=O)c1ccc(CN2CCC(CNC(=O)c3cc(-c4ccc(F)cc4F)on3)CC2)cc1", "Ki": "1000 to 10000 nM"}
